Assay: chemical genetic growth profiling, strain panel (AID 1159580);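 further: tested at 20 µM; growth read once vehicle control cultures reached saturation at 30 °C; 1 = growth at the plate median or of vehicle wells; lower values mean less growth of the strain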
Conditions: S. cerevisiae deletion strains, growth OD, locus YLR027C, strain aat2, hits give low values
About 2,000 (36%) of roughly 5,500 compounds were called active. Inconclusive results (about 18%) are left out. The list shows a part of the results.
Exercise: state measured normalized growth for each of the molecules provided.
Answers are plain numbers.

CCC(=O)O[C@H]1CCC2C3CCc4cc(O)ccc4C3CC[C@@]21C (stereo partly specified) = 0.966
C[C@]12CCC3c4ccc(O)cc4CCC3C1CC[C@@H]2OC(=O)CCC1CCCC1 (stereo partly specified) = 0.995
CC(=O)OC1CCC2C3CCc4cc(O)ccc4C3CCC12C (stereo unspecified) = 0.976
O=c1n(CCCN2CCN(c3cccc(Cl)c3)CC2)nc2ccccn12 = 0.979
OCCN1CCN(CCCN2c3ccccc3Sc3ccc(Cl)cc32)CC1 = 1

Let us examine a further case.
Sample `CN1CCN(CCCN2c3ccccc3Sc3ccc(Cl)cc32)CC1` ; normalized growth observed: 0.843
